B1: HESX1 (parent)
chain: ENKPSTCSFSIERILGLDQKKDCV

Variants of: B1
testDetails: protein stability index of a GFP-peptide fusion (GPS, HEK-293T) (PSI 1-6); higher = more stable;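 further: lentivirally expressed fusions sorted by FACS into six bins by GFP to DsRed ratio, PSI derived from sequencing read proportions per bin multiplied by bin number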
conditionParameters: c terminus: a fixed tail appended
reportedEndpoint: protein stability index
Please give the numeric answer without any surrounding text.

Exercise: Which value of protein stability index has been reported for ENKPSTCSFSIERIIGLDQKKDCV in the records?
Key: 2.96

Exercise: Which value of protein stability index has been reported for ENKPSTCSFSIERILGFDQKKDCV in the records?
Key: 2.91

Exercise: Which value of protein stability index has been reported for ENKPSTCSFSIPRILGLDQKKDCV in the records?
Key: 2.94

Exercise: Which value of protein stability index has been reported for ENKPSTCKFSIERILGLDQKKDCV in the records?
Key: 2.94

Exercise: Which value of protein stability index has been reported for ENKPSTCSFSIERILMLDQKKDCV in the records?
Key: 2.92
